Target: Nuclear receptor subfamily 1 group I member 2 (Rattus norvegicus) (UniProt Q9R1A7)
Sequence (Q9R1A7 whole entry, looked up): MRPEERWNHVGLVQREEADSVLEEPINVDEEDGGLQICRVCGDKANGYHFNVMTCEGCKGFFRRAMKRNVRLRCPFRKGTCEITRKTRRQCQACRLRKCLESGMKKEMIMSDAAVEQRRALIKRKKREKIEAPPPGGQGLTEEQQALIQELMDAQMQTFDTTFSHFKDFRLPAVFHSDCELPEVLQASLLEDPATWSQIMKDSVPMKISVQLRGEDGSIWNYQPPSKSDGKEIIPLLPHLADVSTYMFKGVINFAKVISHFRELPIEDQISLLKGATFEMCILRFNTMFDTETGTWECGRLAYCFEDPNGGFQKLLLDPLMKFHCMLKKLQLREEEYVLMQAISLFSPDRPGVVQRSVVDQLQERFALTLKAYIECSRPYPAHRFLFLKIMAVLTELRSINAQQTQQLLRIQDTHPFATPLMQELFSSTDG
Assay: qHTS assay for small molecule activators of the rat pregnane X receptor (rPXR) signaling pathway (AID 651751); further: 0% is about no effect
Conditions: rPXR reporter cells, luciferase (One-Glo), 24 h
Endpoint label: max response (%)

>>> reported_value("CC1=CCC(C(C)(C)O)CC1 (centres undefined)")
-0.27
>>> reported_value("CC(C)=O")
2.78
>>> reported_value("O=CCCCC=O")
2.91
>>> reported_value("CCCCC(CC)COC(=O)CC(C(=O)OCC(CC)CCCC)S(=O)(=O)O (centres undefined)")
6.97

---

Test system: CP325
Test: qHTS profiling for inhibitors of Plasmodium falciparum proliferation (AID 504749);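 further: 0% = DMSO vehicle and full inhibition = artemisinin control; nearly all actives have a fitted effect of over 60% in size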
Conditions: P. falciparum in erythrocytes, SYBR Green DNA, 72 h; series mostly up to 28.7 µM
Inconclusive results are not listed. Calls of active or inactive are those of the source. Calls follow the shape of the dose curve; as a rule, active = well fitted inhibition curve with a large enough effect; inconclusive = small, poorly fitted or top-dose-only effect; inactive = flat fitted curve, though single readings scatter.
Endpoint label: outcome

>>> reported_value("Nc1c(N=Nc2ccc(-c3ccc(N=Nc4cc(S(=O)(=O)O)c5ccccc5c4N)cc3)cc2)cc(S(=O)(=O)O)c2ccccc12")
"inactive"
>>> reported_value("CC(O)CO (stereo unspecified)")
"inactive"
>>> reported_value("CC1=C(/C=C/C(C)=C/C=C/C(C)=C/C=C/C=C(C)/C=C/C=C(C)/C=C/C2=C(C)CCCC2(C)C)C(C)(C)CCC1")
"inactive"
>>> reported_value("CCCCC/C=C\\C/C=C\\CCCCCCCC(=O)O")
"inactive"
>>> reported_value("CCOC(C)=O")
"inactive"
>>> reported_value("CC(=O)Oc1c(C)cc(OCC(O)CNC(C)C)c(C)c1C (stereo unspecified)")
"inactive"

---

Tested on: KB-3-1
Assay: Cytotoxic Profiling of Annotated Libraries Using Quantitative High-Throughput Screening (AID 1296008); further: nearly all actives have a fitted effect of over 60% in size
Details: Five cell lines viability, CellTiter-Glo ATP luminescence, 48-72 h
Inconclusive results are not listed. Calls of active or inactive are those of the source. Calls follow the shape of the dose curve; as a rule, active = well fitted inhibition curve with a large enough effect; inconclusive = small, poorly fitted or top-dose-only effect; inactive = flat fitted curve, though single readings scatter.
Endpoint label: outcome

>>> reported_value("CCC1CC2C(C)=CC3CCCCC3C2(C)C2(OC(=O)C(C)(O)OC2=O)O1 (configuration not stated)")
"inactive"
>>> reported_value("NC1CCC(N[C@@H]2C[C@H]2c2ccccc2)CC1 (some centres not stated)")
"inactive"
>>> reported_value("CC(=O)O[C@H](C[C@@H](C)[C@H]1C(=O)[C@H](O)[C@@]2(C)[C@@H]3CCC4C(C)(C)[C@@H](O[C@@H]5OC[C@H](O)[C@H](O)[C@H]5O)CC[C@@]45C[C@@]35CC[C@]12C)[C@@H]1OC1(C)C (some centres not stated)")
"inactive"
>>> reported_value("C=CC(C)(O)CC/C=C(\\C)C(=O)OC1CC2(C(=O)O)CCC3(C)C(=CCC4C5(C)CCC(OC6OC(COC7OCC(O)C(O)C7O)C(O)C(OC7OCC(O)C(O)C7O)C6OC6OC(CO)C(O)C(O)C6OC6OCC(O)C(O)C6O)C(C)(C)C5CCC43C)C2CC1(C)C (configuration not stated)")
"inactive"
>>> reported_value("OC[C@H]1O[C@@H](Oc2ccc3c(c2)OC[C@H]2c4cc5c(cc4O[C@@H]32)OCO5)[C@H](O)[C@@H](O)[C@@H]1O")
"inactive"
>>> reported_value("C=CC1(C)CC(O)C2(CCC3C(C)(C(=O)O)CCCC3(C)C2=O)C1 (configuration not stated)")
"inactive"
>>> reported_value("C=Cc1cc(O)cc2nc(-c3ccc(O)c(F)c3)oc12")
"inactive"
